- test.description: Pharmacokinetic study in rats (oral gavage and tail vein injection, plasma LC-MS/MS)
- Type: in vivo
- condition: male, rat, SD rats, Iv, 1 mg/kg, read-out: Cmax
quantity: Cmax

Answered examples (3):
The measured Cmax associated with CCC[C@@H](C)OC(=O)Nc1c(-c2ccc(C#CC3(CC(=O)O)CC(OC)C3)c(C)n2)nnn1C (stereo partly drawn) reads 5000 to 8000 ng/mL

The measured Cmax associated with CCC(F)(F)[C@@H](C)OC(=O)Nc1c(C)noc1-c1ccc(C#CC2(CC(=O)O)CC(OC)C2)c(C(F)(F)F)n1 (stereo partly drawn) reads 8000 to 12000 ng/mL

The measured Cmax associated with CCCN(C)C(=O)OCc1c(-c2ccc(C#C[C@@H]3CCC[C@H]3C(=O)O)c(C)n2)nnn1C reads 800 to 5000 ng/mL

Further cases:
The measured Cmax associated with CCC(F)(F)[C@@H](C)OC(=O)Nc1c(-c2ccc(C#C[C@@H]3CCC[C@H]3C(=O)O)c(C)n2)nnn1C (mixture of isomers) reads 800 to 5000 ng/mL

The measured Cmax associated with Cc1nc(-c2nnn(C)c2NC(=O)O[C@H](C)CC(C)(F)F)ccc1C#CC1(CC(=O)O)CCC1 reads 800 to 5000 ng/mL

The measured Cmax associated with Cc1nc(-c2nnn(C)c2NC(=O)OC(C)c2cc(F)cnc2Cl)ccc1C#CC1(CC(=O)O)CC1 (single isomer, unassigned) reads 5000 to 8000 ng/mL

The measured Cmax associated with Cc1nc(-c2nnn(C)c2NC(=O)O[C@H](C)c2ccccc2)ccc1C#C[C@@H]1C[C@H]1C(=O)O reads 800 to 5000 ng/mL

The measured Cmax associated with Cc1nc(-c2nnn(C)c2COc2nccc(C3CC(F)(F)C3)n2)ccc1C#CC1(CC(=O)O)CC1 reads 5000 to 8000 ng/mL

The measured Cmax associated with C[C@H](CC(C)(F)F)OC(=O)Nc1c(-c2ccc(C#CC3(CC(=O)O)CC3)c(Cl)n2)nnn1C reads 800 to 5000 ng/mL

The measured Cmax associated with Cc1nc(-c2nnn(C)c2COC(=O)N(C)CCC(C)(F)F)ccc1C#C[C@@H]1CCC[C@H]1C(=O)O (racemic) reads 800 to 5000 ng/mL

The measured Cmax associated with CCOC1CC(C#Cc2ccc(-c3nnn(C)c3NC(=O)O[C@H](C)C(F)(F)CC)nc2C)(CC(=O)O)C1 (stereo partly drawn) reads 5000 to 8000 ng/mL

The measured Cmax associated with Cc1nc(-c2nnn(C)c2NC(=O)OC(C)C23CC(F)(C2)C3)ccc1C#CC1(CC(=O)O)CC1 (stereo not drawn) reads 800 to 5000 ng/mL

The measured Cmax associated with Cc1nc(-c2nnn(C)c2CNc2nccc(C3CCC3)n2)ccc1C#CC1(CC(=O)O)CC1 reads 800 to 5000 ng/mL

The measured Cmax associated with CCCN(C)C(=O)OCc1c(-c2ccc(O[C@H]3CCC[C@H](C(=O)O)C3)c(C)n2)nnn1C [Control compound 1, reference compound] reads 1570 ng/mL

The measured Cmax associated with CCC(F)(F)[C@@H](C)OC(=O)Nc1c(-c2ccc(C#C[C@@H]3CC[C@H]3C(=O)O)c(C)n2)nnn1C (mixture of isomers) reads 800 to 5000 ng/mL

The measured Cmax associated with Cc1nc(-c2nnn(C)c2NC(=O)O[C@H](C)c2ccccc2)ccc1C#C[C@@H]1CC[C@H]1C(=O)O reads 800 to 5000 ng/mL

The measured Cmax associated with CCC[C@@H](C)OC(=O)Nc1c(-c2ccc(C#C[C@@H]3C[C@H]3C(=O)O)c(C)n2)nnn1C (mixture of isomers) reads 800 to 5000 ng/mL

The measured Cmax associated with C[C@H](C1CC1)N(C)C(=O)OCc1c(-c2ccc(C#CC3(CC(=O)O)CC3)cn2)nnn1C reads 5000 to 8000 ng/mL
